Biological target: T1, EsCas13d, nuclease-dead (Eubacterium siraeum, UniProt B0MS50, R295A;H300A;R849A;H854A)
T1 sequence: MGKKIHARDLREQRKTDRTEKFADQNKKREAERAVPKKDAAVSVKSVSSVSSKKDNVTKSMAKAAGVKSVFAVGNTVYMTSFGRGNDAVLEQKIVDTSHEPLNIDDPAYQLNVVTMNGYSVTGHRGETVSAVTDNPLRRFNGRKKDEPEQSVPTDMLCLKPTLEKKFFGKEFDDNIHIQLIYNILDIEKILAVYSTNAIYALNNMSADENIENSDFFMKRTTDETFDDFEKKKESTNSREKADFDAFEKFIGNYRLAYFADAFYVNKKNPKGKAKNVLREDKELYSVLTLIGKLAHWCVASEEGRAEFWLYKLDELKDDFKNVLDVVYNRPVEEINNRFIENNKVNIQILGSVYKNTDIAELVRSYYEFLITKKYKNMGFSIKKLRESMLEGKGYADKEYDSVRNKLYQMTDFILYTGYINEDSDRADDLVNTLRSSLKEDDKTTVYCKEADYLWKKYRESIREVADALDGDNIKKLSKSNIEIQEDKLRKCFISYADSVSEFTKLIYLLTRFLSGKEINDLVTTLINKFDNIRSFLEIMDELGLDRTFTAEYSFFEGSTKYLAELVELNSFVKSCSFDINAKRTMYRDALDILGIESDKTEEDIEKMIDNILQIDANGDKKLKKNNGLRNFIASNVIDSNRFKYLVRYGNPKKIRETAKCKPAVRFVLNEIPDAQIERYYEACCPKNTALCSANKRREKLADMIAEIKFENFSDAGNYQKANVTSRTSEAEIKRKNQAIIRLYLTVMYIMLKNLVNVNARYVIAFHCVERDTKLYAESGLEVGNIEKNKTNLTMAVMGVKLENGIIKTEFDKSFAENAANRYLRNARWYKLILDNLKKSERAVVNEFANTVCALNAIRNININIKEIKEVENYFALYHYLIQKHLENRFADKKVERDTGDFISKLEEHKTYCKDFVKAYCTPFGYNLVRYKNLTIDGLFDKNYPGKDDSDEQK
Experiment: crRNA (strand 1, pre-loaded); Mg2+; 40 mM Tris-HCl pH 7.5, 150 mM NaCl, 6 mM MgCl2, 1 mM DTT, 0.1% Tween-20, 0.2 mg/ml BSA; 25 C; 10 min per concentration, then washed
Conditions: tags: His6-TwinStrep-SUMO cleaved; N-terminal SNAP kept (SNAP-Surface 488); label: 3' end held by stalled T7 RNA polymerase
pKd: −log10 of the molar value.

{"Binder": "target 1 MT 5'PFS GUC 3'PFS CUC (mixed) RNA 1: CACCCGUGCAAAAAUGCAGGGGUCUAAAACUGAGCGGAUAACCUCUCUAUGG RNA 2: GGGAAUGGAUCCACAUCUACGAAUUCGUCCCAUAGAGAGGUUAUCCGCUCACUCAGAUCGGAAGAGCACACGU", "pKd": 7.40}
{"Binder": "target 1 C7A,U19A (mixed) RNA 1: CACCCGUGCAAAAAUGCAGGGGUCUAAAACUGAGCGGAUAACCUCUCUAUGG RNA 2: GGGAAUGGAUCCACAUCUACGAAUUCGUACCAAAGAGAGGUUAUACGCUCACCGAGAUCGGAAGAGCACACGU", "pKd": 7.32}
{"Binder": "target 3 G3U,G4A (mixed) RNA 1: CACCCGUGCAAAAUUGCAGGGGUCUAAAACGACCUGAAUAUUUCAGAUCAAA RNA 2: GGGAAUGGAUCCACAUCUACGAAUUCGUUUUUGAUCUGAAAUAUUCAAUUCUGCAGAUCGGAAGAGCACACGU", "pKd": 8.11}
